Hey, just so you know, these numbers are from PubChem BioAssay (NCATS).

Tested on: CRL-7250
Assay: Cytotoxic Profiling of Annotated Libraries Using Quantitative High-Throughput Screening (AID 1296008); further: nearly all actives have a fitted effect of over 60% in size; further: potency means the concentration at half of the fitted maximal effect
Details: Five cell lines viability, CellTiter-Glo ATP luminescence, 48-72 h
Inconclusive results are not listed. Activity calls are given as the source filed them. The call rests on the fitted dose curve; in most records, active means well fitted inhibition curve with a large enough effect; inconclusive means small, poorly fitted or top-dose-only effect; inactive means flat fitted curve, though single readings scatter.
Readout Type: Potency

// below: answered compounds
{"Record Smiles": "COc1ccc2cc([S+]([O-])Cc3ncc(C)c(OC)c3C)nc2c1", "Meas Value": "inactive"}
{"Record Smiles": "O=C1NC(=O)C(=Cc2ccc3nccc(-c4ccncc4)c3c2)S1", "Meas Value": "0.0526 µM (active)"}
{"Record Smiles": "NS(=O)(=O)OC[C@@H]1C[C@@H](n2ccc3c(N[C@H]4CCc5ccccc54)ncnc32)C[C@H]1O", "Meas Value": "2.64 µM (active)"}
{"Record Smiles": "COC(=O)[C@H](CCCN=C(N)N)NS(=O)(=O)c1ccc(C)cc1", "Meas Value": "inactive"}
{"Record Smiles": "CCCc1nc(C(C)(C)O)c(C(=O)O)n1Cc1ccc(-c2ccccc2-c2nn[nH]n2)cc1", "Meas Value": "inactive"}
{"Record Smiles": "O=C1NCCc2[nH]c(-c3ccncc3)cc21", "Meas Value": "7.43 µM (active)"}
{"Record Smiles": "COc1cc(OC)cc(-c2ccc3ncc4ccc(=O)n(-c5ccc(N6CCNCC6)c(C(F)(F)F)c5)c4c3c2)c1", "Meas Value": "10.5 µM (active)"}
{"Record Smiles": "Cc1cc(C(=O)NOCCO)c(Nc2ccc(I)cc2F)n(C)c1=O", "Meas Value": "0.743 µM (active)"}
{"Record Smiles": "COC(=O)[C@@H]1[C@H]2C[C@@H]3c4[nH]c5ccccc5c4CCN3C[C@@H]2CC[C@@H]1O", "Meas Value": "inactive"}
{"Record Smiles": "COc1cc(N2CCC(C(N)=O)CC2)ccc1Nc1nc(N)c(Cl)c(Nc2ccccc2S(=O)(=O)C(C)C)n1", "Meas Value": "inactive"}

Entry under review: `COc1ccc([C@@H]2CNC(=O)C2)cc1OC1CCCC1` . Reported Potency?
inactive

Entry under review: `Cc1cc(Nc2ncc3c(n2)N(C)C(=O)N(c2cc(NC(=O)c4cccc(C(F)(F)F)c4)ccc2C)C3)n(C)n1` . Reported Potency?
0.469 µM (active)

Entry under review: `CNC(=O)c1ccc(Nc2cc(Nc3ccccc3S(=O)(=O)C(C)C)c3cc[nH]c3n2)nc1` . Reported Potency?
3.32 µM (active)

Entry under review: `CN(CC(=O)N(Cc1ccc(C2CCCCC2)cc1)c1ccc(C(=O)O)c(O)c1)S(=O)(=O)c1c(F)c(F)c(F)c(F)c1F` . Reported Potency?
inactive

Entry under review: `C[C@H](NCc1ccc2c(c1)nc(NC(=O)c1ccc(-c3cn[nH]c3)s1)n2CCc1ccccc1)C(C)(C)C` . Reported Potency?
1.87 µM (active)

Entry under review: `C=CC(=O)N1CCc2ccc(-n3c(=O)ccc4cnc5ccc(-c6cnn(C)c6)cc5c43)cc21` . Reported Potency?
3.72 µM (active)

Entry under review: `Nc1nc(=O)n([C@H]2C[C@H](O)[C@@H](CO)O2)cc1F` . Reported Potency?
inactive

Entry under review: `O=C(NCc1ccccc1)[C@H](Cc1ccccc1)NC(=O)[C@@H]1O[C@@H]1C(=O)NCCc1ccc(O)cc1` . Reported Potency?
inactive

Entry under review: `CCCCOc1ccc(C(=O)Nc2ccc(F)cc2F)cc1` . Reported Potency?
inactive
